measuredOn: human CD33 N20S (human, UniProt P20138 18-364)
Sequence (P20138 18-364 N20S limits assumed): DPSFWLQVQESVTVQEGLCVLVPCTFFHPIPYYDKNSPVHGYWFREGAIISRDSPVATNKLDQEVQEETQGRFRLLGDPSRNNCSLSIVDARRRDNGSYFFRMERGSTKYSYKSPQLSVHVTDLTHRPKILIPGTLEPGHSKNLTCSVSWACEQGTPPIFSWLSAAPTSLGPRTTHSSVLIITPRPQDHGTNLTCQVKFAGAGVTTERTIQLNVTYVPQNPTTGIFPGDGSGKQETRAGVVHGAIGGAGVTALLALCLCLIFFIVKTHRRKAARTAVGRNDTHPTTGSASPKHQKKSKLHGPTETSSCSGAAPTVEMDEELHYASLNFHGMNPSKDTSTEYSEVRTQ
procedureSummary: flow cytometry, mutant on cells, IgG
reportedEndpoint: Mean % WT Binding (% WT binding)
Express it in % WT binding; write the number only.

Recorded results for 3 binders are shown here.
{"columns": ["binder", "reportedEndpoint", "resultUnits", "quantitativeReadout"],
 "data": [
  ["Refmab #2 (antibody, human IgG1, V domains shown, Tested in IgG format; human IgG1 Fc silent (PG-LALA)) VH: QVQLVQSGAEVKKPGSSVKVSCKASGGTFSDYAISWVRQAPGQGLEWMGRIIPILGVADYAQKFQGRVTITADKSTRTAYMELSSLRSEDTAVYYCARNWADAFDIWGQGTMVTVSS VL: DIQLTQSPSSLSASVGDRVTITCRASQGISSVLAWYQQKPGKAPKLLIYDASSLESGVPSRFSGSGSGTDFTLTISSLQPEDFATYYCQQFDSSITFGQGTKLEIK", "Mean % WT Binding", "% WT binding", 124],
  ["Refmab #1 (antibody, human IgG1, V domains shown, Tested in IgG format; human IgG1 (Absolute Antibody hP67.6, Cat. No. Ab00283-10.0); also called hP67.6) VH: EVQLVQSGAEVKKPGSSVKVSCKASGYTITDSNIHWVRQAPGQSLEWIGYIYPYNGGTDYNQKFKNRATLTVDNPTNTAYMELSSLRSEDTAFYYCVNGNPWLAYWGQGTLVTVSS VL: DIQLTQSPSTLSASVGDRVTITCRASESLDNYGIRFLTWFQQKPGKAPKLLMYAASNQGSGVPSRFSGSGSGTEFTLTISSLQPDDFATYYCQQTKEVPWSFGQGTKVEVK", "Mean % WT Binding", "% WT binding", 45.5],
  ["Refmab #4 (antibody, human IgG1, V domains shown, Tested in IgG format; human IgG1 Fc silent (PG-LALA)) VH: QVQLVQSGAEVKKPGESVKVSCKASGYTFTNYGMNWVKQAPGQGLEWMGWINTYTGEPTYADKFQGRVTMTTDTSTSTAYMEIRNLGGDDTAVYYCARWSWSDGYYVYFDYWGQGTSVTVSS VL: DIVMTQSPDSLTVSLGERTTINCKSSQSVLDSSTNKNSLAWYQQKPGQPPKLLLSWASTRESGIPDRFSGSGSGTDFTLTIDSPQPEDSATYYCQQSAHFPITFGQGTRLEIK", "Mean % WT Binding", "% WT binding", 91.7]
]}

Specify reported Mean % WT Binding for the binder shown: Refmab #3 (antibody, human IgG1, V domains shown, Tested in IgG format; human IgG1 Fc silent (PG-LALA)) VH: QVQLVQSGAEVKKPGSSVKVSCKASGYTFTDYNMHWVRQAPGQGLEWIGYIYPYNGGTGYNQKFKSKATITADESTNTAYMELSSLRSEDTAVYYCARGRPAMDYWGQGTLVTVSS VL: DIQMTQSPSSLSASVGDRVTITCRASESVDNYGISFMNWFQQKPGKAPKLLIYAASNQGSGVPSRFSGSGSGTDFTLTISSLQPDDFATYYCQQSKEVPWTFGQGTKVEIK
4.6
